MIC values for the molecules below.
Tested on: [Candida] auris
assay explanation: Antifungal activity against fluconazole-resistant Candida auris 919 assessed as inhibition of fungal growth incubated for 48 hrs by microbroth dilution method
Type: functional
measurement context: Candidozyma auris

compound structure | MIC
C[C@@H](OCC#Cc1ccc(F)cc1F)[C@](O)(Cn1cncn1)c1ccc(F)cc1F | 16 µg/mL

Read the next record carefully.
Q: Answer with MIC of C[C@@H](OCC#Cc1ccc(Cl)cc1Cl)[C@](O)(Cn1cncn1)c1ccc(F)cc1F measured for [Candida] auris.
Ans: 8 µg/mL

----------
# reported log10 of MIC; entries follow
Test system: Pichia kudriavzevii
assay explanation: Antifungal activity against Candida krusei 4996 assessed as inhibition of fungal growth incubated for 48 hrs by microbroth dilution method
Assay type: functional
Hello, just confirming the data are log10 of MIC with units of µg/mL.

compound structure | numeric result
C[C@@H](OCC#Cc1ccncc1)[C@](O)(Cn1cncn1)c1ccc(F)cc1F | 0.60

Please turn your attention to the following entry.
Q: State measured log10 of MIC of the compound C[C@@H](OCC#Cc1ccccn1)[C@](O)(Cn1cncn1)c1ccc(F)cc1F with Pichia kudriavzevii.
Ans: 1.20
